readout-kind: melting point

# example entries with known answers
COC1OC(CO)C(O)C(OC(C)=O)C1Cl (stereo not given) = 105 to 106 °C
COC(=O)c1ccccc1Oc1ccc(S(=O)(=O)NCc2ccnc3ccccc23)cc1 = 163 to 166 °C
COC(=O)C1=C(C)NC(C)=C(C(=O)OCCC#N)C1c1cccc2c(=O)c(C)c(-c3ccccc3)oc12 (stereo not given) = 190 to 192 °C

Would you mind telling me what melting point value was observed for `COc1ccc(C(=O)Nc2ccccc2)cc1NS(=O)(=O)c1sc(NC(C)=O)nc1C` ? 260 to 261 °C

Would you mind telling me what melting point value was observed for `Oc1cccc2c1C(n1ccnc1)=CCC2` ? 186 °C

* * *

readout-kind: melting point (°C)

O=C1CCCc2c1c1cccc(Cl)c1n2Cc1ccc(F)cc1 = 166
CN1CCC(OC(c2ccccc2)c2nc3cccc(N)c3[nH]2)CC1 (stereo not given) = 96.7

[1] c1ccc(C2CN3CCN=C3S2)nc1 (stereo not given)
[2] O=C(O)C12CC(c3ccccc31)c1ccccc12
I'm curious, which of these has a smaller melting point number: 1 or 2 ? Give the label under which the chosen entry appears. 1

* * *

readout-kind: melting point

CCNC(=O)c1ccccc1N(C)C(C)(C)C = 45 to 48 °C
CN(C)N=Nc1cc([N+](=O)[O-])sc1C(N)=O = 240 to 246 °C
O=C(CCN1CCN(c2ccc3c(c2)OCO3)CC1)c1csc2ccc(F)cc12 = 84 to 86 °C
O=C1CCC(N2Cc3c(OCc4ccc(CN5CCc6ncccc6C5)cc4)cccc3C2=O)C(=O)N1 (stereo not given) = 163 to 165 °C
Nc1nc(N)c(C(=O)NC(Cc2ccccc2)C(=O)NCCNCC(O)COc2cccc3ccccc23)nc1Cl (stereo not given) = 142 to 146 °C

Would you mind telling me what melting point value was observed for `CCC#CCCOc1ccc(/C=C/C(=O)Nc2ccccc2C(=O)O)cc1OC` ? 165 to 166 °C

* * *

readout-kind: melting point

Would you mind telling me what melting point value was observed for `Cc1ccc2nc(NC(=N)N)[nH]c2c1C` ? 122 to 124 °C

Would you mind telling me what melting point value was observed for `O=C1C=CC2=CN=C(C3CCCCC3)N3CCC(=C23)N1` ? 265 to 266 °C

Would you mind telling me what melting point value was observed for `Cc1cccc(Oc2nc(-c3c[nH]nc3C)cs2)n1` ? 138 to 139 °C

Would you mind telling me what melting point value was observed for `COc1cnn(-c2cccc(CBr)c2)c(=O)c1OC` ? 67 to 69 °C

Would you mind telling me what melting point value was observed for `CC(C)(C)CC(C)(C)c1cc(O)c(Sc2ccccc2)c(Sc2nnnn2-c2ccccc2)c1O` ? 147 °C

Would you mind telling me what melting point value was observed for `O=C(NCCN1CCC(O)(c2ccc(Cl)cc2)CC1)c1cccs1` ? 153 °C

* * *

This listing pairs compounds with measured melting point.

# example entries with known answers
CCOC(=O)Cc1ccc(NC(=O)C(CCc2ccccc2)NS(=O)(=O)c2ccc(Br)cc2)cc1 (racemic) = 130 to 131 °C
CN(C)C(c1cccs1)C1CCC(=NO)CC1 (stereo not drawn) = 118 to 121 °C
Cc1ccc(NC(=O)c2ccc(/C=C/C(=O)NOC3CCCCO3)cc2)cc1Nc1nc(-c2cccnc2)cs1 (stereo not drawn) = 168 °C
Fc1ccc([C@H]2CC[C@H](N3CCN(Cc4ccccc4)CC3)CC2)cc1 = 106 °C
Cn1c(=O)c2c(nc(Cl)n2Cc2ccccc2)n(C)c1=O = 146 to 147 °C

Would you mind telling me what melting point value was observed for `CCOC(=O)c1ccc2c(SC(=O)N3CCSCC3)cccn2c1=O` ? 146 to 148 °C

Would you mind telling me what melting point value was observed for `CC(=O)c1cc(I)c(O)c(Cl)n1` ? 223 to 224 °C

Would you mind telling me what melting point value was observed for `CSC(=C[N+](=O)[O-])NCCCCc1nccs1` ? 75.5 to 76 °C

Would you mind telling me what melting point value was observed for `Cc1ccc2[nH]c(=O)cc(CCCl)c2c1` ? 215 to 216 °C

* * *

readout-kind: melting point

# example entries with known answers
Cn1ncc(/C=C/C(=O)Nc2ccc(CC(=O)NN)cc2)c1-c1ccc(F)cc1 = 273 to 274 °C
CC1=CC2=C(N3CN(N4CCCC4)C=C3N=N2)N(c2cc(Cl)ccc2Cl)C1 = 157 °C
COc1cc(C(=O)Cc2ccccc2C)cc([N+](=O)[O-])c1O = 150 to 151 °C
COc1ccc2cc(Br)ccc2c1[N+](=O)[O-] = 151 to 152 °C
CC#CCOc1ccc(S(=O)(=O)N(C)C2(C(=O)O)CCCCC2)cc1 = 124 to 126 °C

Would you mind telling me what melting point value was observed for CC(C)C1C(=O)C(C)(C)C(=O)N1c1ccc(C#N)c(Cl)c1 (stereo not given) ? 116 to 117 °C

Would you mind telling me what melting point value was observed for `CC(C)(O)COC(=O)N1CCN(C#N)CC1` ? 90 to 92 °C

Would you mind telling me what melting point value was observed for `CCOC(=O)c1cnoc1-c1ccc(OC)c(OC)c1` ? 113 to 114 °C

Would you mind telling me what melting point value was observed for `CC[C@H]1CN(c2c(F)cc3c(=O)c(C(=O)O)cn([C@@H]4C[C@@H]4F)c3c2OC)C[C@H]1NC` ? 143 to 145 °C

Would you mind telling me what melting point value was observed for `OCc1cc2c(F)ccc(Cl)c2s1` ? 63 to 64 °C

* * *

This listing pairs compounds with measured melting point.

# example entries with known answers
CN1CCN(c2ccc([N+](=O)[O-])cc2)S1(=O)=O = 155 to 163 °C
O=C(O)CCCNc1cc(Oc2ccc(C(F)(F)F)cc2Cl)ccc1[N+](=O)[O-] = 126 to 127 °C
O=S(=O)(Nc1ccc(Cl)cc1C(=NOCc1ccc(Br)cc1)c1ccccc1)C(F)(F)F = 55 to 56 °C
Cc1cc(C)c2c(c1O)C(=O)C(c1ccccc1)C2 (stereo unspecified) = 90.5 to 91 °C
Cc1sc(Nc2cc(F)ccn2)nc1-c1cn[nH]c1 = 283 °C

Would you mind telling me what melting point value was observed for `COc1cc2c(-c3ccnc(NN)c3)c(CO)c(CO)cc2cc1OC1CCCC1` ? 127 to 130 °C

Would you mind telling me what melting point value was observed for `Cc1cc(C)c2c(n1)N(CCCCl)c1ccccc1N(C)C2=O` ? 161 to 163 °C

Would you mind telling me what melting point value was observed for `Cc1cc(Cl)c(C(=O)c2ccc(Cl)cc2)c(Cl)c1` ? 112 to 114 °C

Would you mind telling me what melting point value was observed for `CC(=O)N1Cc2nc(Cl)nc(Nc3ccc(F)c(Cl)c3)c2N=C1Cl` ? 178 °C

Would you mind telling me what melting point value was observed for `COc1ccc(-c2nnc3c4ccccc4c(Nc4cccc(-c5nn[nH]n5)c4)nn23)cc1` ? 305 to 308 °C

Would you mind telling me what melting point value was observed for `Cc1ccnc2c1C(=O)c1ccccc1C2=O` ? 198 to 201 °C

Would you mind telling me what melting point value was observed for `COc1cc(C(=O)c2ccnn2C)c(Cl)c(Cl)c1OC` ? 99.5 to 101 °C

Would you mind telling me what melting point value was observed for `CN(CCOc1ccc(CO)cc1)c1ncccn1` ? 73 to 74 °C

Would you mind telling me what melting point value was observed for `NC(=O)CNC(=O)c1cccc(-c2ccc3c(c2)N(c2cccc(Cl)c2Cl)CC3)c1` ? 203 to 204 °C

Would you mind telling me what melting point value was observed for O=C(O)C1CC(c2ccccc2)=NN1C(=O)CP(=O)(O)CCCCc1ccccc1 (single isomer, unassigned; (+)) ? 166 to 169 °C

Would you mind telling me what melting point value was observed for `CC(=O)c1ccc(N2CCN(c3c(C)c(C)c4c(c3C)CC(C)(C)O4)CC2)cc1` ? 192 to 196 °C

Would you mind telling me what melting point value was observed for OC(c1ccccc1)(c1cccc(C(F)(F)F)c1)c1ncc[nH]1 (stereo unspecified) ? 152 °C

Would you mind telling me what melting point value was observed for `N#CCC(=O)c1cc(F)c(F)c(F)c1F` ? 55 to 57 °C

Would you mind telling me what melting point value was observed for `O=S1(=O)N=C(c2ccccc2)c2ccccc21` ? 118 °C

Would you mind telling me what melting point value was observed for `CNC(=NC#N)NCCSCc1csc(NC(=N)N)n1` ? 159 to 161 °C

Would you mind telling me what melting point value was observed for `CCOC(=O)CNC(=O)c1ccc(N)cc1` ? 93 to 94 °C

Would you mind telling me what melting point value was observed for COc1ccc(C2NCCc3c2[nH]c2ccccc32)cc1 (stereo unspecified) ? 131 °C

Would you mind telling me what melting point value was observed for O=C(O)C1=Cc2cc(Cl)c(Oc3ccc4cc(Br)ccc4c3)cc2OC1C(F)(F)F (stereo unspecified) ? 253 to 255 °C

Would you mind telling me what melting point value was observed for CC(C)(C)OC(=O)C(C(=O)O)c1cccc(N)c1 (stereo unspecified) ? 105 °C
